Target Under Test: T1, recombinant, soluble human ASGR-1 (human, UniProt P07306 62-291)
T1 construct: biotinylated in the binning assay; also called soluble huASGR-1; Soluble ASGR-1 (Amgen)
T1 sequence: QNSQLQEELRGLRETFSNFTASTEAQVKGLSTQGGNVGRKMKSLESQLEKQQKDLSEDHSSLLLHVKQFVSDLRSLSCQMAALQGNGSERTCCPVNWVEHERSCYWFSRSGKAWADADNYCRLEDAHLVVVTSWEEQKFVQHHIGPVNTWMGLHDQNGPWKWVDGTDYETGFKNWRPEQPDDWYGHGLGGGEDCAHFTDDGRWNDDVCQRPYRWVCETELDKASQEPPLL
Assay: Octet BLI dissociation, pH 7.4 minus calcium
# % Change Compared to pH 7.4 + Calcium annotations
Answer in %, number only, no unit symbol.

• 172B12 (antibody, V domains shown, hybridoma mAb) VH: QVQLVQSGAEVKKPGASVTVSCKASGYTFRSYYMYWVRQAPGQGLEWVGTINPSGGSTDYAQKFQGRVTMTRDTSTSTLYMELNSLRSEDTAVYYCASGWELNYWGQGTLVTVSS VL: SSELTQDPAVSVALGQTVRITCQGDSLRNYYASWYQQKPGQAPILVIYTKNSRPSGIPDRFSGSTSGNTASLTITGAQAEDEADYYCNSRDSSGNHVVFGGGTKLTVL = -14
• 85F7 (antibody, V domains shown, hybridoma mAb) VH: QVQLQQWGAGLLKPSEPLSLTCAVYGGSFSGPYWSWIRQPPGKGLEWIGEINHSGSTNYNPSLKSRVTISVDTSKNQFSLKLTSVTAADTAVYYCARDYGGLDVWGQGTTVTVSS VL: EPVLTQSPGTLSLSPGERATLSCRASQNIYSNYLAWYQQKPGQAPRLLIYGASSRATGIPDRFSGSGSGTDFTLTISRLEPEDFAVYCCQQYESSPWTFGQGTKVEIK = 2

We next turn to a different binder, shown below.
So what's the measured % Change Compared to pH 7.4 + Calcium for this one? 176H4 (antibody, V domains shown, hybridoma mAb) VH: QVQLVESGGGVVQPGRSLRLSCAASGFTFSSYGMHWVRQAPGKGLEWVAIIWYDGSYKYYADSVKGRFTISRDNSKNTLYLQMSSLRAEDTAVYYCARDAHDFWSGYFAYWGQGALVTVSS VL: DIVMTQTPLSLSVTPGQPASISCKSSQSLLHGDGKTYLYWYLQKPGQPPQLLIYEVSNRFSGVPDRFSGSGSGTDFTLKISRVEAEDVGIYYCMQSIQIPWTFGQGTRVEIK
2
